melting point reference
OBSERVATION TYPE: melting point

SMILES REPR | OBS VALUE
CC(C)(C)c1ccc(S(=O)(=O)NCc2ccc(C(=O)Nc3ccc(F)nc3)cc2)cc1 | 254 to 257 °C
CCCN(Cc1ccc(C(=O)Nc2cccnc2)cc1)S(=O)(=O)c1ccc(C(C)(C)C)cc1 | 177 to 179 °C
Cc1cc(C)cc(C(=O)NCc2ccc(C(=O)Nc3cccnc3)cc2)c1 | 241 to 243 °C
Cc1c(Cl)cccc1S(=O)(=O)NCc1ccc(C(=O)Nc2cccnc2)cc1 | 218 to 221 °C
Cc1ccncc1NC(=O)c1ccc(CNS(=O)(=O)c2ccc(C(C)(C)C)cc2)cc1 | 183 to 185 °C
CC(C)(C)c1ccc(S(=O)(=O)NCc2ccc(C(=O)Nc3cccnc3)cc2F)cc1 | 198 to 200 °C
Cc1ccc(NC(=O)c2ccc(CNS(=O)(=O)c3ccc(C(C)(C)C)cc3)cc2)cn1 | 235 to 237 °C
COCCCc1ccc(S(=O)(=O)NCc2ccc(C(=O)Nc3cccnc3)cc2)cc1 | 172 to 174 °C
O=C(Nc1cnccn1)c1ccc(CNS(=O)(=O)c2ccccc2)cc1 | 200 to 202 °C
CC(C)(C)c1ccc(S(=O)(=O)NCc2ccc(C(=O)Nc3cncc(Cl)c3)cc2)cc1 | 217 to 219 °C
CC(C)(C)c1ccc(S(=O)(=O)NCc2ccc(C(=O)Nc3ccc(Br)nc3)cc2)cc1 | 242 to 244 °C
CC(C)(C)c1ccc(S(=O)(=O)NCc2ccc(C(=O)Nc3ccc(C(F)(F)F)nc3)cc2)cc1 | 249 to 252 °C
COc1ccc(C(=O)NCc2ccc(C(=O)Nc3cccnc3)cc2)cc1OC | 219 to 220 °C
CC(C)(C)c1ccc(S(=O)(=O)NCc2ccc(C(=O)Nc3cncc(F)c3)cc2)cc1 | 214 to 217 °C
O=C(Nc1ncccn1)c1ccc(CNS(=O)(=O)c2ccccc2)cc1 | 180 to 182 °C
O=C(Nc1cccnc1)c1ccc(CNS(=O)(=O)c2ccc(-c3cccc(C(F)(F)F)c3)cc2)cc1 | 227 to 229 °C
CC(C)(C)c1ccc(S(=O)(=O)NCc2ccc(C(=O)Nc3ccncc3)cc2)cc1 | 261 to 263 °C
C=CC(=O)Nc1cccc(S(=O)(=O)NCc2ccc(C(=O)Nc3cccnc3)cc2)c1 | 178 to 180 °C
COc1ccc(NC(=O)c2ccc(CNS(=O)(=O)c3ccc(C(C)(C)C)cc3)cc2)cn1 | 238 to 240 °C
O=C(Nc1cnc2ccccc2c1)c1ccc(CNS(=O)(=O)c2ccccc2)cc1 | 186 to 188 °C
COc1ccncc1NC(=O)c1ccc(CNS(=O)(=O)c2ccc(C(C)(C)C)cc2)cc1 | 231 to 233 °C
Cc1cc(C(=O)Nc2cccnc2)ccc1CNS(=O)(=O)c1ccc(C(C)(C)C)cc1 | 203 to 205 °C
N#Cc1cc(S(=O)(=O)NCc2ccc(C(=O)Nc3cccnc3)cc2)ccc1F | 211 to 213 °C
CC(C)(C)c1ccc(S(=O)(=O)NCc2ccc(C(=O)Nc3cccnc3[N+](=O)[O-])cc2)cc1 | 191 to 193 °C
O=C(Nc1cc[nH]n1)c1ccc(CNS(=O)(=O)c2ccccc2)cc1 | 180 to 182 °C
CCC(=O)Nc1cccc(S(=O)(=O)NCc2ccc(C(=O)Nc3cccnc3)cc2)c1 | 215 to 218 °C
O=C(Nc1ccc[n+]([O-])c1)c1ccc(CNS(=O)(=O)c2ccccc2)cc1 | 230 to 231 °C
O=C(Nc1cccc2ncccc12)c1ccc(CNS(=O)(=O)c2ccccc2)cc1 | 198 to 201 °C
